pKd values by entry
Target: T1, IFN-αF (human, UniProt P01568 24-189)
T1 construct: also called IFN-α21; alpha F
T1 chain: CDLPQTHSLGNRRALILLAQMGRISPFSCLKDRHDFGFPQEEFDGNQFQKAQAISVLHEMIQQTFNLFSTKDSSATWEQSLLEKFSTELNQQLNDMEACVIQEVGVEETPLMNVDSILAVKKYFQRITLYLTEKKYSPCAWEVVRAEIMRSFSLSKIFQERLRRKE
Assay: ProteOn, one antigen concentration
pKd: −log10 of the molar value.
Readout Kind: pKd

Binder: IFWM3306 (antibody, V domains shown, VH IFWH591, VL IFWL1000; converted mAb; also called IFWB3041) VH: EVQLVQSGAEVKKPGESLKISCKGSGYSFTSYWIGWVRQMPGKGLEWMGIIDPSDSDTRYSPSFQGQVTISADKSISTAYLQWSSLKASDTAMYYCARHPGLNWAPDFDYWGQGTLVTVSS VL: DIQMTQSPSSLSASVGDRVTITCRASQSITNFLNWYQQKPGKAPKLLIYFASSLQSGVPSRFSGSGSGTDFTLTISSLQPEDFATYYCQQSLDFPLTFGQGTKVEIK
Experimental Result: 10.60
//
Binder: IFWM3323 (antibody, V domains shown, VH IFWH591, VL IFWL1053; converted mAb; also called IFWB3058) VH: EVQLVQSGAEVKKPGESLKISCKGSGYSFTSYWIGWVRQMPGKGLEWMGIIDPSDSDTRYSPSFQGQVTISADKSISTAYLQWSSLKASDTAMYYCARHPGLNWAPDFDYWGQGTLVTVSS VL: DIQMTQSPSSLSASVGDRVTITCRASQSITNHLNWYQQKPGKAPKLLIYFASSLQSGVPSRFSGSGSGTDFTLTISSLQPEDFATYYCQQAHNFPLTFGQGTKVEIK
Experimental Result: 10.32
//
Binder: IFWM3327 (antibody, V domains shown, VH IFWH591, VL IFWL1063; converted mAb; also called IFWB3062) VH: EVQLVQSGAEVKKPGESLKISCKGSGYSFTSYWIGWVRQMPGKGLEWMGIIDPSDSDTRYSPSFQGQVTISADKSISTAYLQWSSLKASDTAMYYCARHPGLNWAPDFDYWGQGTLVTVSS VL: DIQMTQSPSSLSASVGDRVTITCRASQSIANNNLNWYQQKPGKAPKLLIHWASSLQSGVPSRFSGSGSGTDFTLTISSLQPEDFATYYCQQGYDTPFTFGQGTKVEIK
Experimental Result: 10.46
//
Binder: IFWM3359 (antibody, V domains shown, VH IFWH624, VL IFWL1047; converted mAb; also called IFWB3094) VH: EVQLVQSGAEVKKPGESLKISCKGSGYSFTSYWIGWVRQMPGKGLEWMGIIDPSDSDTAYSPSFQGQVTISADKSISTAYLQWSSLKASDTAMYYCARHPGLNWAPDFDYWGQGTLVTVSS VL: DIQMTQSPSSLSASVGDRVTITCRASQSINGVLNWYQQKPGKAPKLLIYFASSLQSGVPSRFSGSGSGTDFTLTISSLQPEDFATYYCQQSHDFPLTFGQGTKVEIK
Experimental Result: 10.28
//
Binder: IFWM3360 (antibody, V domains shown, VH IFWH624, VL IFWL1048; converted mAb; also called IFWB3095) VH: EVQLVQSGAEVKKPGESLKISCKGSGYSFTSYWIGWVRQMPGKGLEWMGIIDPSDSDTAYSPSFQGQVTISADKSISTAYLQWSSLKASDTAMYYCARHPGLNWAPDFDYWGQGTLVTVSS VL: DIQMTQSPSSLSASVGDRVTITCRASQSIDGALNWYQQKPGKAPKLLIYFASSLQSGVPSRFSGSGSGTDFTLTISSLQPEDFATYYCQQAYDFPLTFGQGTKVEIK
Experimental Result: 10.31
